From: paper PMC5540273

# System: MAP3K3;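 further: KINOMEscan kinase panel screen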
# CONDITION LABEL: concentration: 1 μM, replicates: in singlicate; n = 1
molecules and their reported %Inh
Value and unit, in that order.

Examples from the recorded data:
MOLECULE: CSc1cccc2c(-c3ccncn3)c(-c3ccc(F)cc3)nn12
%Inh: 0%

MOLECULE: CN1CCN(CCCNc2nccc(-c3c(-c4ccc(F)cc4)nn4cc(C(F)(F)F)ccc34)n2)CC1
%Inh: 0%

MOLECULE: Cc1cccc(Nc2nc(N[C@H]3CCNC3)ncc2C(N)=O)c1.Cl
%Inh: 60%

MOLECULE: CNC(=O)c1ccccc1Nc1nc(Nc2ccc(N3CCOCC3)cc2)ncc1Cl.Cl
%Inh: 99.4%

MOLECULE: c1ccc(Oc2ccc(Nc3ccnc4cc(-c5ccc(CNCCN6CCOCC6)o5)ccc34)cc2)nc1
%Inh: 0%

MOLECULE: COc1ccc(Nc2nccc(NCCNC(=O)c3cc4ccccc4s3)n2)cc1
%Inh: 0%

In: Item COc1ccc(Nc2nccc(N3CCC(NC(=O)Nc4cccc(OC)c4)C3)n2)cc1 (stereo not drawn) with MAP3K3 - %Inh?
Out: 0%

In: // next record O=C(Nc1cccc(-c2nn3ccccc3c2-c2ccnc(Nc3cccc(F)c3)n2)c1)c1c(F)ccc(F)c1Cl
Out: 7%

In: // next record COc1cccc(C2=C(Nc3ccc(Cl)c(C(=O)O)c3)C(=O)NC2=O)c1
Out: 0%

In: // next record CC(=O)Nc1nc2cnc(Nc3cc(NC(=O)c4cccc(C5(C#N)CC5)c4Cl)ccc3C)nc2s1
Out: 0%

In: // next record Cl.Cl.NCC(C(=O)Nc1cc(Br)c(-c2ccnc3[nH]ccc23)s1)c1ccccc1 (stereo not drawn)
Out: 0%

In: // next record Nc1ncc(-c2cccnc2)c2scc(-c3ccc4c(c3)CCN4C(=O)Cc3ccccc3)c12
Out: 18%

In: // next record CN(C)S(=O)(=O)c1cc(-c2ccc3nccc(-c4cccc(S(N)(=O)=O)c4)c3c2)cnc1N
Out: 0%

In: // next record COc1cc(Nc2ncc3c(C)nc(-c4cc5ccccc5[nH]4)n3n2)cc(OC)c1OC
Out: 14%

In: // next record COc1cc(Nc2nccc(-c3c(-c4cccc(NC(=O)c5c(F)cccc5F)c4)nn4ncccc34)n2)cc(OC)c1OC
Out: 92.9%

In: // next record CN(C)Cc1ccc(-c2ccc3c(Nc4ccc(Oc5ccccn5)cc4)ccnc3c2)o1
Out: 0%

In: // next record COc1cccc(NC(=O)NC2CCN(c3ccnc(Nc4cc(OC)c(OC)c(OC)c4)n3)C2)c1 (stereo not drawn)
Out: 0%

In: // next record COCCOCCOc1cc2ncc3c4ccc(C#N)cc4[nH]c3c2cc1OC
Out: 4%
